Values compiled from patent US20220119354A1.

Tested on: pigweed (Amaranthus retroflexus)
Test: Test A postemergence, pigweed
Assay type: in vivo
Settings: Amaranthus retroflexus, post-emergence, 240 h, 125 g ai/ha, 0 to 100 scale, read-out: Plant response rating, Pigweed
result-type: pest or weed control at 125 g/ha (%)

1) C[C@@H](Nc1ncc(C(F)(F)F)c(N)n1)c1cc2ccc(F)cc2o1 100
2) Cc1cc(C)cc(OC[C@@H](C)Nc2ncc(C(F)(F)F)c(N)n2)c1 70
3) C[C@@H](Nc1ncc(C(F)(F)F)c(N)n1)C1Cc2ccccc2C1 100
4) C[C@@H](Nc1ncc(C(F)(F)F)c(N)n1)c1cc2ccccc2s1 100

###

Tested on: ryegrass, Italian (Lolium multiflorum)
Test: Test A preemergence, Italian ryegrass
Format: in vivo
Conditions: 500 g ai/ha, 0 to 100 scale, 0 is no effect, 100 is complete control

molecule	test-system	Ryegrass, Italian plant response rating
C[C@@H](Nc1ncc(C(F)(F)F)c(N)n1)c1cc2cccc(F)c2o1	ryegrass, Italian (Lolium multiflorum)	80
C[C@@H](Nc1ncc(C(F)(F)F)c(N)n1)c1cc2c(F)cccc2s1	ryegrass, Italian (Lolium multiflorum)	100
CC(Nc1nc(N)c(C(F)(F)F)c(C(F)(F)F)n1)c1coc2ccccc12 (stereo not drawn)	ryegrass, Italian (Lolium multiflorum)	0
C[C@H](Nc1nc(N)c(C(F)(F)F)c(C(F)(F)F)n1)c1cc2ccccc2s1	ryegrass, Italian (Lolium multiflorum)	20
C[C@@H](Nc1ncc(C(F)(F)F)c(N)n1)c1coc2ccccc12	ryegrass, Italian (Lolium multiflorum)	90
Cc1cccc2oc(C(C)Nc3ncc(C(F)(F)F)c(N)n3)cc12 (stereo not drawn)	ryegrass, Italian (Lolium multiflorum)	90
Cc1ccc2c(C(C)Nc3ncc(C(F)(F)F)c(N)n3)coc2c1 (stereo not drawn)	ryegrass, Italian (Lolium multiflorum)	50
CC(Nc1ncc(C(F)(F)F)c(N)n1)c1cc2c(Cl)cccc2o1 (stereo not drawn)	ryegrass, Italian (Lolium multiflorum)	90
CC(C)[C@@H](Nc1ncc(C(F)(F)F)c(N)n1)c1cc2ccccc2s1	ryegrass, Italian (Lolium multiflorum)	0

###

System: ragweed (common ragweed, Ambrosia elatior)
Assay: Test A postemergence, ragweed
Type: in vivo
Settings: 125 g ai/ha, 0 to 100 scale
Each entry below lists one item and its recorded Plant response rating, Ragweed value.

compound	Plant response rating, Ragweed
Cc1ccc2cc([C@@H](C)Nc3ncc(C(F)(F)F)c(N)n3)oc2c1 [Compound 14]	0
Cc1cccc(OCC(C)Nc2ncc(C(F)(F)F)c(N)n2)c1 (centres unmarked) [Compound 32]	0
CC(COc1cc(Cl)cc(Cl)c1)Nc1ncc(C(F)(F)F)c(N)n1 (centres unmarked) [Compound 35]	0
C[C@@H](Nc1ncc(C(F)(F)F)c(N)n1)c1cc2ccc(Cl)cc2o1 [Compound 29]	20
C[C@@H](Nc1ncc(C(F)(F)F)c(N)n1)c1cccc2ccccc12 [Compound 3]	30

###

Test system: pigweed (Amaranthus retroflexus)
Experiment: Test A postemergence, pigweed
Format: in vivo
Conditions: 125 g ai/ha, 0 to 100 scale, 0 no effect, 100 complete control
Label scheme, based on Plant response rating, Pigweed: bucket 1: < 60; bucket 2: ≥ 60 and < 90; bucket 3: ≥ 90

compound	label-value
C[C@H](Nc1ncc(C(F)(F)F)c(N)n1)c1cc2cccc(F)c2o1 [Compound 72]	bucket 1
Nc1nc(NC(c2cc3ccccc3o2)C2CC2)ncc1C(F)(F)F (centres unmarked) [Compound 88]	bucket 3
CC[C@H](Nc1ncc(C(F)(F)F)c(N)n1)c1coc2ccccc12 [Compound 81]	bucket 1
C[C@H](Nc1nc(N)c(C(F)(F)F)c(C(F)(F)F)n1)C1Cc2ccccc2C1 [Compound 68]	bucket 1
CC(Nc1ncc(C(F)(F)F)c(N)n1)c1cc2c(Br)cccc2o1 (centres unmarked) [Compound 102]	bucket 3
C[C@@H](Nc1ncc(C#N)c(N)n1)c1cc2ccccc2s1 [Compound 104]	bucket 2
C[C@@H](Nc1ncc(C(F)(F)F)c(N)n1)c1cc2ccccc2[s+]1[O-] (some centres unmarked) [Compound 113]	bucket 3
CC(Nc1ncc(C(F)(F)F)c(N)n1)c1coc2cc(Cl)ccc12 (racemic) [Compound 77]	bucket 2
C[C@@H](Nc1nc(N)c(C(F)(F)F)c(C(F)F)n1)c1cc2ccccc2o1 [Compound 111]	bucket 2
Nc1nc(NC(c2cc3ccccc3o2)C2CC2)ncc1C(F)(F)F (centres unmarked) [Compound 89]	bucket 1
Cc1ccc2c([C@@H](Nc3ncc(C(F)(F)F)c(N)n3)C3CC3)coc2c1 [Compound 91]	bucket 1
C[C@@H](Nc1nc(N)c(C(F)(F)F)c(C(F)(F)F)n1)c1cc2ccccc2o1 [Compound 65]	bucket 1
C[C@@H](Nc1ncc(C(F)(F)F)c(N)n1)c1cc2c(F)ccc(F)c2s1 [Compound 114]	bucket 3
C[C@@H](Nc1nc(N)c(C(F)(F)F)c(C(F)(F)F)n1)C1Cc2ccccc2C1 [Compound 67]	bucket 1
CC[C@H](Nc1ncc(C(F)(F)F)c(N)n1)c1cc2ccc(F)cc2s1 [Compound 49]	bucket 1
Nc1nc(N[C@@H](c2coc3ccccc23)C2CC2)ncc1C(F)(F)F [Compound 79]	bucket 3
Nc1nc(N[C@@H](c2cc3ccccc3s2)C2CC2)ncc1C(F)(F)F [Compound 84]	bucket 3
C[C@@H](Nc1ncc(C(F)(F)F)c(N)n1)c1cc2c(Cl)cccc2s1 [Compound 116]	bucket 3
Nc1nc(NC(c2coc3ccccc23)C2CC2)ncc1C(F)(F)F (racemic) [Compound 95]	bucket 3
CC[C@@H](Nc1ncc(C(F)(F)F)c(N)n1)c1cc2ccccc2s1 [Compound 43]	bucket 3
CC(Nc1ncc([N+](=O)[O-])c(N)n1)c1cc2ccccc2s1 (centres unmarked) [Compound 99]	bucket 1
CC(Nc1nc(N)c(C(F)(F)F)c(C(F)(F)F)n1)c1coc2ccccc12 (centres unmarked) [Compound 87]	bucket 1
CC(Nc1ncc(C(F)(F)F)c(N)n1)c1cc2ccc(Cl)cc2s1 (racemic) [Compound 70]	bucket 3
CC[C@@H](Nc1ncc(C(F)(F)F)c(N)n1)c1cc2ccc(F)cc2o1 [Compound 63]	bucket 3
C[C@@H](Nc1ncc([S+](C)[O-])c(N)n1)c1cc2ccccc2s1 (some centres unmarked) [Compound 110]	bucket 2

###

System: ryegrass, Italian (Lolium multiflorum)
Test: Test A postemergence, Italian ryegrass
Format: in vivo
Settings: Lolium multiflorum, post-emergence, 240 h, 500 g ai/ha, 0 to 100 scale, read-out: Plant response rating, Ryegrass, Italian
result-type: pest or weed control at 500 g/ha

compound	result-type	result
C[C@@H](Nc1ncc(C(F)(F)F)c(N)n1)c1cc2ccccc2s1 [Compound 4]	pest or weed control at 500 g/ha	20%
C[C@@H](Nc1ncc(C(F)(F)F)c(N)n1)c1cc2ccc(F)cc2o1 [Compound 8]	pest or weed control at 500 g/ha	0%
Cc1cc(C)cc(OC[C@@H](C)Nc2ncc(C(F)(F)F)c(N)n2)c1 [Compound 25]	pest or weed control at 500 g/ha	20%
C[C@@H](Nc1ncc(C(F)(F)F)c(N)n1)C1Cc2ccccc2C1 [Compound 13]	pest or weed control at 500 g/ha	20%

###

System: foxtail, giant (Setaria faberii)
Assay: Test A postemergence, giant foxtail
Assay type: in vivo
Details: 125 g ai/ha, 0 to 100 scale, 0 no effect, 100 complete control
result-type: Plant response rating, Foxtail, Giant

compound	numeric-readout
CC(Nc1ncc(C(F)(F)F)c(N)n1)c1cc2c(Br)cccc2o1 (stereo not drawn)	0
CC[C@H](Nc1ncc(C(F)(F)F)c(N)n1)c1cc2ccccc2s1	0
Cc1nc(NC(C)c2cc3ccccc3s2)nc(N)c1C(F)(F)F (stereo not drawn)	0
CC(=O)c1cnc(NC(C)c2cc3ccccc3s2)nc1N (stereo not drawn)	0
C[C@@H](Nc1ncc(C(F)(F)F)c(N)n1)c1cc2ccccc2n1C	0
Nc1nc(N[C@@H](c2cc3ccccc3s2)C2CC2)ncc1C(F)(F)F	50
CC(F)c1nc(N[C@H](C)c2cc3ccccc3s2)nc(N)c1C(F)(F)F (stereo partly drawn)	20
Nc1nc(N[C@@H](c2coc3ccccc23)C2CC2)ncc1C(F)(F)F	60
C[C@@H](Nc1ncc(C(F)(F)F)c(N)n1)c1cc2ccc(F)cc2s1	10

###

Each entry below lists one item and its recorded Ryegrass, Italian plant response rating value.
Test system: ryegrass, Italian (Lolium multiflorum)
Assay: Test A preemergence, Italian ryegrass
Type: in vivo
Settings: 125 g ai/ha, 0 to 100 scale, 0 is no effect, 100 is complete control
result-type: Ryegrass, Italian plant response rating

compound	result-type	numeric-readout
CC(Nc1ncc(C(F)(F)F)c(N)n1)c1cc2ccc(F)c(F)c2s1 (stereo not drawn) [Compound 86]	Ryegrass, Italian plant response rating	20
C[C@H](Nc1ncc(C(F)(F)F)c(N)n1)c1cc2ccccc2n1C [Compound 76]	Ryegrass, Italian plant response rating	0
CC[C@@H](Nc1ncc(C(F)(F)F)c(N)n1)c1cc2ccc(F)cc2s1 [Compound 48]	Ryegrass, Italian plant response rating	0
C[C@@H](Nc1nc(N)c(C(F)(F)F)c(C(F)(F)F)n1)c1cc2ccccc2o1 [Compound 65]	Ryegrass, Italian plant response rating	0
CC(Nc1nc(N)c(C(F)(F)F)c(C(F)(F)F)n1)c1coc2ccccc12 (stereo not drawn) [Compound 87]	Ryegrass, Italian plant response rating	0
CC(C)[C@@H](Nc1ncc(C(F)(F)F)c(N)n1)c1cc2ccccc2s1 [Compound 50]	Ryegrass, Italian plant response rating	0
CC(Nc1ncc(C(F)(F)F)c(N)n1)c1coc2cccc(F)c12 (racemic) [Compound 96]	Ryegrass, Italian plant response rating	0
CC(Nc1ncc([N+](=O)[O-])c(N)n1)c1cc2ccccc2s1 (stereo not drawn) [Compound 99]	Ryegrass, Italian plant response rating	20
C[C@@H](Nc1ncc(C(F)(F)F)c(N)n1)c1csc2ccccc12 [Compound 41]	Ryegrass, Italian plant response rating	20
